# system: VBC complex (VHL:ElonginB:ElonginC) (Homo sapiens, UniProt P40337)
# Construct: made in house
# Sequence (Q15369 17-112): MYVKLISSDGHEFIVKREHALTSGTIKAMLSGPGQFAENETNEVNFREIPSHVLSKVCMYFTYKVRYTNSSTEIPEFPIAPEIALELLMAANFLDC
# Sequence (P40337 54-213): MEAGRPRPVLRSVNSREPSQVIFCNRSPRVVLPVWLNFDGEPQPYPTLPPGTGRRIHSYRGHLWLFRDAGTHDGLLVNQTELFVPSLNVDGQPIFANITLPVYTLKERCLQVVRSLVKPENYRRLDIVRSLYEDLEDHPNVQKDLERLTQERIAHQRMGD
# Sequence (Q15370 1-104, further chain): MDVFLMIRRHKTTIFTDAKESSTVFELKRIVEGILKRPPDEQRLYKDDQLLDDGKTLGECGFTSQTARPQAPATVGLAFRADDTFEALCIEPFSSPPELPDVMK
# Type: binding
# reported-conditions: LE = −RT ln Kd/NHA, on the basis of ITC results
value-kind: LE
In your response, the unit should come after the numeric value.

For each entry beneath this line, provide reported LE.
1. CC(=O)NC1(C(=O)N[C@H](C(=O)N2C[C@H](O)C[C@H]2C(=O)NCc2ccc(-c3scnc3C)cc2)C(C)(C)C)CC1 [Inhibitor 17]
2. Cc1ncsc1-c1ccc(CNC(=O)[C@@H]2C[C@@H](O)CN2C(=O)[C@@H](NC(=O)CO)C(C)(C)C)cc1 [Inhibitor 3]
3. Cc1ncsc1-c1ccc(CNC(=O)[C@@H]2C[C@@H](O)CN2C(=O)[C@@H](NC(=O)C2CC2)C(C)(C)C)cc1 [Inhibitor 6]
4. CC(=O)C1(C(=O)N[C@H](C(=O)N2C[C@H](O)C[C@H]2C(=O)NCc2ccc(-c3scnc3C)cc2)C(C)(C)C)CC1 [Inhibitor 16]
5. Cc1ncsc1-c1ccc(CNC(=O)[C@@H]2C[C@@H](O)CN2C(=O)[C@@H](NC(=O)C2CCC2)C(C)(C)C)cc1 [Inhibitor 18]

a:
0.24 kcal × mol^-1 × NHA^-1
0.27 kcal × mol^-1 × NHA^-1
0.26 kcal × mol^-1 × NHA^-1
0.25 kcal × mol^-1 × NHA^-1
0.25 kcal × mol^-1 × NHA^-1

FYI, the data here is from paper PMC5788404.
